The entries below are paired with their reported Intrinsic activity.
biological target: Angiotensin II receptor (Rattus norvegicus) (UniProt P29089+P25095+P35351); assay: Intrinsic myotropic activity at angiotensin 2 receptor in Sprague-Dawley rat uterus relative to [Ile5]angiotensin 2
Square brackets hold non-standard residues; d marks the D form. Peptide text beside a SMILES is read from it. Sar = CNCC(=O)O
Endpoint Name: Intrinsic activity

{"Compound": "CC[C@H](C)[C@H](NC(=O)[C@H](Cc1ccc(O)cc1)NC(=O)[C@@H](NC(=O)[C@H](CCCNC(=N)N)NC(=O)CNC)C(C)C)C(=O)N[C@@H](Cc1cnc[nH]1)C(=O)N(C)CC(=O)N[C@@H](CCSC)C(=O)O (H-[Sar]RVYIH[Sar]M-OH)", "Study System": "Angiotensin II receptor (Rattus norvegicus) (UniProt P29089+P25095+P35351)", "Result": "< 0.1%"}
{"Compound": "CC[C@H](C)[C@H](NC(=O)[C@H](Cc1ccc(O)cc1)NC(=O)[C@@H](NC(=O)[C@H](CCCNC(=N)N)NC(=O)CNC)C(C)C)C(=O)N[C@@H](Cc1cnc[nH]1)C(=O)N(C)CC(=O)N[C@H](C(=O)O)[C@@H](C)OC (H-[Sar]RVYIH[Sar]T(Me)-OH)", "Study System": "Angiotensin II receptor (Rattus norvegicus) (UniProt P29089+P25095+P35351)", "Result": "< 0.1%"}
{"Compound": "CC[C@H](C)[C@H](NC(=O)[C@@H]1CCCN1C(=O)[C@H](Cc1c[nH]cn1)NC(=O)[C@@H](NC(=O)[C@H](Cc1ccc(O)cc1)NC(=O)[C@@H](NC(=O)[C@H](CCCN=C(N)N)NC(=O)CNC)C(C)C)[C@@H](C)CC)C(=O)O", "Study System": "Angiotensin II receptor (Rattus norvegicus) (UniProt P29089+P25095+P35351)", "Result": "< 0.1%"}
{"Compound": "CCC(C)C(NC(=O)CN(C)C(=O)[C@H](Cc1cnc[nH]1)NC(=O)[C@@H](NC(=O)[C@H](Cc1ccc(O)cc1)NC(=O)[C@@H](NC(=O)[C@H](CCCNC(=N)N)NC(=O)CNC)C(C)C)[C@@H](C)CC)C(=O)O (mixture of isomers)", "Study System": "Angiotensin II receptor (Rattus norvegicus) (UniProt P29089+P25095+P35351)", "Result": "0.7%"}
